assayed.target: TNFα (Homo sapiens)
experiment.notes: HEK-Blue hTNFα reporter assay
Assay type: cell-based
Parameters: purchased R&D biosystem (R&D Systems) 210-TA-020/CF
condition.summary: HEK-Blue hTNFα reporter cells; read-out: TNFα reporter, IC50
reported.property: IC50 (nM)
Give the number; nM is assumed, so skip it.

Illustrative cases are given below, each with its answer.
compound | quantity.unit | IC50
CN1C(=O)c2cccc(OC(F)F)c2[C@H]2C[C@@H]1c1nc3ccc(-c4cnc([C@]5(N)C[C@@](C)(CO)C5)nc4)cc3n12 [Comp. Ex #7, reference compound] | nM | 4.2
CN1C(=O)c2cccc(OC(F)F)c2[C@H]2C[C@@H]1c1nc3ccc(-c4cnc(C5(O)CCOCC5)nc4)cc3n12 [Comp. Ex #3, reference compound] | nM | 8.2

IC50 measured on CN1C(=O)c2cccc(OC(F)F)c2[C@H]2C[C@@H]1c1nc3ccc(-c4cnc([C@]5(O)C[C@@](C)(O)C5)nc4)cc3n12 [Comp. Ex #6, reference compound] = 5.2

----------
assayed.target: UniProt P01375
experiment.notes: HEK-Blue hTNFα reporter assay
Assay type: cell-based
Set-up: purchased R&D biosystem (R&D Systems) 210-TA-020/CF
condition.summary: HEK-Blue hTNFα reporter cells, SEAP readout; read-out: IC50 Range
pIC50: −log10 of the molar value.
Measured pIC50 of individual entries

// solved cases for pIC50 follow
molecule | assay.value
[2H]C([2H])([2H])N1C(=O)c2cccc(OC(F)F)c2[C@H]2C[C@@H]1c1nn3ccc(-c4cnc([C@]5(N)C[C@@](C)(O)C5)nc4)nc3c12 [Example 218] | > 7.60
CN1C(=O)c2cccc(OC(F)F)c2[C@H]2C[C@@H]1c1nn3ccc(-c4cnc([C@@](C)(O)CC#N)nc4)cc3c12 [Example 76] | > 7.60
[2H]C([2H])([2H])N1C(=O)c2cccc(OC(F)F)c2[C@H]2C[C@@H]1c1nn3ccc(-c4cnc(C5(N)COC5)nc4)nc3c12 [Example 177] | 7.00 to 7.60
[2H]C([2H])([2H])N1C(=O)c2cccc(OC(F)F)c2[C@H]2C[C@@H]1c1nn3cc(F)c(-c4cnc([C@]5(O)C[C@@](C)(N)C5)c(F)c4)cc3c12 [Example 256] | > 7.60
CN1C(=O)c2cccc(OC(F)F)c2[C@H]2C[C@@H]1c1nn3ccc(-c4cnc(P(C)(C)=O)c(F)c4)cc3c12 [Example 21] | > 7.60

Switching to the query record.
Reported pIC50 ( CN1C(=O)c2cccc(OC(F)F)c2[C@H]2C[C@@H]1c1nn3ccc(-c4cnc(N5CCNCC5)nc4)cc3c12 [Example 143] ) = > 7.60

----------
assayed.target: TNFα (Homo sapiens, UniProt P01375)
Sequence (P01375 77-233 limits assumed): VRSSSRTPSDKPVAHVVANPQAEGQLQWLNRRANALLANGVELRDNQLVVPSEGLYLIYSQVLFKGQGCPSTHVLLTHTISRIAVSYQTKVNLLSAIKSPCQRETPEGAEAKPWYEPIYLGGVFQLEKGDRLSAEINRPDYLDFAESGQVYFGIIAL
experiment.notes: HEK-Blue hTNFα reporter assay
Format: cell-based
Design: purchased R&D biosystem (R&D Systems) 210-TA-020/CF
condition.summary: HEK-Blue hTNFα reporter cells; read-out: TNFα reporter, Emax
Item-by-item account of Emax
The answer is to be given in %; state only the numeric part.

Consider CN1C(=O)c2cccc(OC(F)F)c2[C@H]2C[C@@H]1c1nn3ccc(-c4cnc([C@]5(N)C[C@@](C)(CO)C5)nc4)nc3c12 . Its measured Emax is 93

Short answer for CN1C(=O)c2cccc(OC(F)F)c2[C@H]2C[C@@H]1c1nn3ccc(-c4cnc(C5(O)CCOCC5)nc4)cc3c12 : Emax was 90

The compound CN1C(=O)c2cccc(OC(F)F)c2[C@H]2C[C@@H]1c1nc3ccc(-c4ccc(P(C)(C)=O)nc4)cc3n12 [Comp. Ex #4, reference compound] showed Emax equal to 82

Please fill in: Emax reported for CN1C(=O)c2cccc(OC(F)F)c2[C@H]2C[C@@H]1c1nn3ccc(-c4cnc([C@]5(O)C[C@@](C)(O)C5)nc4)cc3c12 = 91

Per the record, CN1C(=O)c2cccc(OC(F)F)c2[C@H]2C[C@@H]1c1nc3ccc(-c4cnc([C@]5(N)C[C@@](C)(C#N)C5)nc4)cc3n12 [Comp. Ex #5, reference compound] has Emax of 83

Form field Emax, entry CN1C(=O)c2cccc(OC(F)F)c2[C@H]2C[C@@H]1c1nn3cnc(-c4cnc([C@]5(N)C[C@@](C)(O)C5)c(F)c4)cc3c12 : 94

----------
Listed compounds paired with reported IC50
assayed.target: UniProtKB P01375
experiment.notes: HEK-Blue hTNFα reporter assay
Format: cell-based
Design: purchased R&D biosystem (R&D Systems) 210-TA-020/CF
condition.summary: HEK-Blue hTNFα reporter cells, SEAP readout; read-out: IC50 Range

Solved entries (count: 3):
compound | assay.value
CN1C(=O)c2cccc(OC(F)F)c2[C@H]2C[C@@H]1c1nn3ccc(-c4cnc(C5(N)CC(F)(F)C5)nc4)cc3c12 [Example 99] | < 0.025 µM
[2H]C([2H])([2H])N1C(=O)c2cccc(OC(F)F)c2[C@H]2C[C@@H]1c1nn3ccc(-c4cnc(C5(N)CCC5)c(F)c4)cc3c12 [Example 250] | < 0.025 µM
Cn1ccc(N2CC=C(c3ccn4nc5c(c4c3)[C@@H]3C[C@H]5NC(=O)c4cccc(OC(F)F)c43)CC2)n1 [Example 315] | 0.025 to 0.1 µM

The compound listed as CN1C(=O)c2cccc(OC(F)F)c2[C@H]2C[C@@H]1c1nn3ccc(-c4cnc([C@](C)(O)CO)nc4)cc3c12 [Example 83] has a reported IC50 of < 0.025 µM

----------
assayed.target: TNFα (Homo sapiens, UniProt P01375)
experiment.notes: HEK-Blue hTNFα reporter assay
Type: cell-based
Design: purchased R&D biosystem (R&D Systems) 210-TA-020/CF
condition.summary: HEK-Blue hTNFα reporter cells, SEAP readout; read-out: IC50 Range
pIC50: −log10 of the molar value.
reported.property: pIC50

compound | pIC50
[2H]C([2H])([2H])N1C(=O)c2cccc(OC(F)F)c2[C@H]2C[C@@H]1c1nn3cnc(-c4cnc([C@]5(N)C[C@@](C)(C#N)C5)c(F)c4)cc3c12 [Example 175] | > 7.60

Tested on TNFα (Homo sapiens, UniProt P01375): CN1C(=O)c2cccc(C3CC3)c2[C@H]2C[C@@H]1c1nn3ccc(-c4ccc(P(C)(C)=O)nc4)cc3c12 [Example 304] . Observed pIC50: > 7.60

# value of pIC50, TNFα (Homo sapiens, UniProt P01375), item [2H]C([2H])([2H])N1C(=O)c2cccc(OC(F)F)c2[C@H]2C[C@@H]1c1nn3ccc(-c4cnc([C@]5(O)C[C@@](C)(N)C5)nc4)nc3c12 [Example 180] = 6.00 to 7.00

Lab entry: TNFα (Homo sapiens, UniProt P01375) assay, compound [2H]C([2H])([2H])N1C(=O)c2cccc(C#N)c2[C@H]2C[C@@H]1c1nn3cc(F)c(-c4cnc(C5(N)CCC5)nc4)cc3c12 [Example 307] , pIC50 = 7.00 to 7.60

The reported pIC50 value, TNFα (Homo sapiens, UniProt P01375), for Cc1cc(P(C)(C)=O)c(F)cc1-c1ccn2nc3c(c2c1)[C@@H]1C[C@H]3NC(=O)c2cccc(OC(F)F)c21 [Example 198] reads > 7.60

Lab entry: TNFα (Homo sapiens, UniProt P01375) assay, compound CN1C(=O)c2cccc(OC(F)F)c2[C@H]2C[C@@H]1c1nn3ccc(-c4cnc([C@]5(O)C[C@@H](O)C5)nc4)cc3c12 [Example 82] , pIC50 = > 7.60

Sample CN1C(=O)c2cccc(OC(F)F)c2[C@H]2C[C@@H]1c1nn3cnc(-c4cnc(C5(N)CCC5)nc4)cc3c12 [Example 48] , system: TNFα (Homo sapiens, UniProt P01375). Its pIC50 is > 7.60

Reported pIC50 (TNFα (Homo sapiens, UniProt P01375)) for entry [2H]C([2H])([2H])N1C(=O)c2cccc(OC(F)F)c2[C@H]2C[C@@H]1c1nn3ccc(-c4cnc(C(C)(C)N)nc4)cc3c12 [Example 254] is > 7.60

pIC50 on TNFα (Homo sapiens, UniProt P01375) for [2H]C([2H])([2H])N1C(=O)c2cccc(OC(F)F)c2[C@H]2C[C@@H]1c1nn3ccc(-c4cnc([C@@H](N)C5CC5)nc4)nc3c12 [Example 276] is 7.00 to 7.60

Sample [2H]C([2H])([2H])N1C(=O)c2cccc(OC(F)F)c2[C@H]2C[C@@H]1c1nn3ccc(-c4cnc([C@]5(N)C[C@@](C)(C#N)C5)nc4)nc3c12 [Example 56] , system: TNFα (Homo sapiens, UniProt P01375). Its pIC50 is > 7.60

Reported pIC50 (TNFα (Homo sapiens, UniProt P01375)) for entry [2H]C([2H])([2H])N1C(=O)c2cccc(OC(F)F)c2[C@H]2C[C@@H]1c1nn3ccc(-c4cnc(C5(N)CCC5)nc4C)nc3c12 [Example 242] is > 7.60

// returns pIC50 for CN1C(=O)c2cccc(OC(F)F)c2[C@H]2C[C@@H]1c1nn3ccc(-c4cnc([C@@](C)(O)C5CC5)nc4)cc3c12 [Example 80] with TNFα (Homo sapiens, UniProt P01375); value = > 7.60
